# credit: patent US20180186796A1

Assay: PAMPA, BBB permeability
Settings: PAMPA, pH 7.4
Returns condition met if the recorded Papp at 5 h, 0.5 mM is greater than or equal to 2 ×10⁻⁶ cm/s, and condition not met otherwise.

molecule="CSc1nc(N(C(=O)OCCN2CCN(C)CC2)c2cccc(Br)c2)c2cnn(CC(C)c3ccccc3)c2n1 (centres unmarked) [proSi278 (A)]" discrete_label="condition not met"
molecule="CSc1nc(NCCc2ccccc2)c2cnn(CC(Cl)c3ccccc3)c2n1 (centres unmarked) [Si35]" discrete_label="condition met"
molecule="CN1CCN(CCOC(=O)N(Cc2ccccc2)c2ncnc3c2cnn3CC(Cl)c2ccccc2)CC1 (centres unmarked) [proS13]" discrete_label="condition met"
molecule="CSc1nc(Nc2cccc(Cl)c2)c2cnn(CC(Cl)c3ccccc3)c2n1 (centres unmarked) [Si83]" discrete_label="condition met"
molecule="CSc1nc(N(CCc2ccccc2)C(=O)OCCN2CCN(C)CC2)c2cnn(CC(Cl)c3ccccc3)c2n1 (centres unmarked) [proSi35]" discrete_label="condition not met"

* * *

Target: Recombinant human Src (Homo sapiens, UniProt P12931)
Construct: purchased Upstate (Lake Placid, N.Y.)
Sequence (P12931 whole entry): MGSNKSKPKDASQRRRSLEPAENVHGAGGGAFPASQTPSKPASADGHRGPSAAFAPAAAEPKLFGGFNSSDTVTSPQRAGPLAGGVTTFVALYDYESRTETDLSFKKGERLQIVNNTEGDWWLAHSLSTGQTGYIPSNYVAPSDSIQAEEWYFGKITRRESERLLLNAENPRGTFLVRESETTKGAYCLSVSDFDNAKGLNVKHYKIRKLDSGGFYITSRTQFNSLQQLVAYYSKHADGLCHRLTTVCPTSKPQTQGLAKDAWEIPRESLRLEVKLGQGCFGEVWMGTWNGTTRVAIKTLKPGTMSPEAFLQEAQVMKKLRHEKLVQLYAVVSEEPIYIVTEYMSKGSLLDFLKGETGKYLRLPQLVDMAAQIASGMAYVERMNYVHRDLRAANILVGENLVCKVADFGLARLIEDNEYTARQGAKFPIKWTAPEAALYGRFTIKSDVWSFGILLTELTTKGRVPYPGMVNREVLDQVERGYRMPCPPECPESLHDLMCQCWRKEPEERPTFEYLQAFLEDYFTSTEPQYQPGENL
Assay: Enzymatic assay on isolated Src
Type: biochemical
test readout: Ki

compound="Clc1cccc(Nc2nc(SC3CCCC3)nc3c2cnn3CC(Cl)c2ccccc2)c1 (centres unmarked)" test_readout=Ki result="> 100 µM"
compound="CCSc1nc(Nc2cccc(Br)c2)c2cnn(CC(C)c3ccccc3)c2n1 (centres unmarked)" test_readout=Ki result="~0.1 µM"

* * *

Molecular target: Recombinant human Src (Homo sapiens, UniProt P12931)
Construct: purchased Upstate (Lake Placid, N.Y.)
Experiment: Enzymatic assay on isolated Src
Type: biochemical
Conditions: mean of at least two experiments; read-out: Enzymatic Data (Ki, μM) c-Src
Catalogue of compounds with associated Ki
test readout: Ki

compound="CCSc1nc(Nc2cccc(O)c2)c2cnn(CC(C)c3ccccc3)c2n1 (stereo not shown)" result="0.11 µM"
compound="Fc1cccc(Nc2nc(SC3CCCC3)nc3c2cnn3CC(Cl)c2ccccc2)c1 (stereo not shown) [drawing 179]" result="0.11 µM"
compound="CC(C)Sc1nc(Nc2cccc(Br)c2)c2cnn(CC(Cl)c3ccccc3)c2n1 (stereo not shown)" result="0.62 µM"
compound=Clc1cccc(Nc2nc(SCCN3CCOCC3)nc3c2cnn3CCc2ccccc2)c1 result="1.2 µM"
compound="ClC(Cn1ncc2c(Nc3cccc(Br)c3)nc(SCCN3CCOCC3)nc21)c1ccccc1 (stereo not shown)" result="0.13 µM"
compound=CSc1nc(Nc2cccc(F)c2)c2cnn(CCc3ccccc3)c2n1 result="1.06 µM"
compound="Clc1cccc(Nc2nc(SCCN3CCOCC3)nc3c2cnn3CC(Cl)c2ccccc2)c1 (stereo not shown) [Si181, reference compound]" result="0.19 µM"

* * *

Assay: PAMPA, BBB permeability
Conditions: PAMPA, pH 7.4
test readout: Papp at 5 h, 0.5 mM (×10⁻⁶ cm/s)

compound=CSc1nc(N(C(=O)OCCN2CCN(C)CC2)c2cccc(Cl)c2)c2cnn(CCc3ccccc3)c2n1 test_readout="Papp at 5 h, 0.5 mM" value_unit="×10⁻⁶ cm/s" measured_number=4.3
compound="CN1CCN(CCOC(=O)N(c2cccc(Br)c2)c2nc(SCCN3CCOCC3)nc3c2cnn3CC(Cl)c2ccccc2)CC1 (centres unmarked)" test_readout="Papp at 5 h, 0.5 mM" value_unit="×10⁻⁶ cm/s" measured_number=2.91
compound="CCC(CN1CCN(C)CC1)OC(=O)N(c1cccc(Br)c1)c1nc(SC)nc2c1cnn2CC(C)c1ccccc1 (centres unmarked)" test_readout="Papp at 5 h, 0.5 mM" value_unit="×10⁻⁶ cm/s" measured_number=0.93
compound="CSc1nc(N(C(=O)OCCN2CCN(C)CC2)c2cccc(Cl)c2)c2cnn(CC(Cl)c3ccccc3)c2n1 (centres unmarked)" test_readout="Papp at 5 h, 0.5 mM" value_unit="×10⁻⁶ cm/s" measured_number=4.14
compound="CN1CCN(CCOC(=O)N(c2ccccc2)c2ncnc3c2cnn3CC(Cl)c2ccc(Br)cc2)CC1 (centres unmarked)" test_readout="Papp at 5 h, 0.5 mM" value_unit="×10⁻⁶ cm/s" measured_number=6.97
compound="CN1CCN(CCOC(=O)N(Cc2ccccc2Cl)c2ncnc3c2cnn3CC(Cl)c2ccc(Br)cc2)CC1 (centres unmarked)" test_readout="Papp at 5 h, 0.5 mM" value_unit="×10⁻⁶ cm/s" measured_number=1.92
compound=CSc1nc(Nc2cccc(Cl)c2)c2cnn(CCc3ccccc3)c2n1 test_readout="Papp at 5 h, 0.5 mM" value_unit="×10⁻⁶ cm/s" measured_number=1.48
compound="CSc1nc(N(C(=O)OC(C)CN2CCN(C)CC2)c2cccc(Br)c2)c2cnn(CC(C)c3ccccc3)c2n1 (centres unmarked)" test_readout="Papp at 5 h, 0.5 mM" value_unit="×10⁻⁶ cm/s" measured_number=2.39
